- method: clinical
- condition context: human, in vivo
property name: AUC(0-t) (ng·h/mL)
Give a bare numeral; the unit ng·h/mL is implied.

Need AUC(0-t) of N#Cc1ccc(O[C@H]2CC[C@H](NC(=O)c3ccc(N4CCC(CN5CCN(c6cc7c(cc6F)C(=O)N(C6CCC(=O)NC6=O)C7=O)CC5)CC4)nn3)CC2)cc1Cl (stereo partly shown) , thanks.
3030

----------
- method: clinical
- condition context: human, in vivo, Abiraterone Cmax, mean
property name: Cmax (ng/mL)
Please give a number only; it is taken to be in ng/mL.

Give the measured Cmax of C[C@]12CC[C@H](O)CC1=CC[C@@H]1[C@@H]2CC[C@]2(C)C(c3cccnc3)=CC[C@@H]12 [Abiraterone, reference compound] .
117
